- Study Target: VEGF-R2 kinase (Rattus norvegicus, UniProt O08775)
- Construct: 6xHis (polyhistidine) (N)
- Sequence (O08775 786-1343): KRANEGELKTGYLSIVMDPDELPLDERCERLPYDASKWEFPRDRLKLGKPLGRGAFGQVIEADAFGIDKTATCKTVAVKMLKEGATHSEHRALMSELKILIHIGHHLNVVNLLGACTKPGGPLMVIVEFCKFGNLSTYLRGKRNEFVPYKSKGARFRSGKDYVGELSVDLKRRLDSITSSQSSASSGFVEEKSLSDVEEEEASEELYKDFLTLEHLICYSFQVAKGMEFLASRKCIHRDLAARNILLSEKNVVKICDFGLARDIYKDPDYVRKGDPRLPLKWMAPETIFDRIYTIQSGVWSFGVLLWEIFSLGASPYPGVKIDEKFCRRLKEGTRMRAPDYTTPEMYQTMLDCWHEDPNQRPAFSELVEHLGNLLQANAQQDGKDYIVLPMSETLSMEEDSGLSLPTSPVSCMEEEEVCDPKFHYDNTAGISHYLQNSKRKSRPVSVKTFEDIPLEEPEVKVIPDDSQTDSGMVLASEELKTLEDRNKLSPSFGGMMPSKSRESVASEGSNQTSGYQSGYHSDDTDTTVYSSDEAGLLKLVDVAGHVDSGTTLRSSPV
- Run Description: VEGF-R2 Kinase Screening Assay
- Assay type: biochemical
- Test Conditions: 10 μM ATP; rat VEGF-R2 kinase domain; read-out: IC50 (μM) VEGFR
Property Label: IC50

{"columns": ["Compound", "Recorded Measurement"],
 "data": [
  ["COCCOCCOCC(=O)NS(=O)(=O)c1ccc(Nc2nc(N)n(C(=O)c3c(F)cccc3F)n2)cc1 [Compound 9]", "≥ 100 µM"],
  ["COCCOCCOCC(=O)Nc1nc(Nc2ccc(S(N)(=O)=O)cc2)nn1C(=O)c1c(F)cccc1F [Compound 10]", "1.76 µM"],
  ["Nc1nc(Nc2ccc(S(=O)(=O)NC(=O)CCC(=O)O)cc2)nn1C(=O)c1c(F)cccc1F [Compound 1]", "1.66 µM"],
  ["Nc1nc(Nc2ccc(S(=O)(=O)NC(=O)CCN3CCOCC3)cc2)nn1C(=O)c1c(F)cccc1F [Compound 7]", "1.65 µM"],
  ["NCC(=O)NS(=O)(=O)c1ccc(Nc2nc(N)n(C(=O)c3c(F)cccc3F)n2)cc1 [Compound 2]", "1.97 µM"],
  ["Nc1nc(Nc2ccc(S(=O)(=O)NC(=O)[C@@H]3CCCN3)cc2)nn1C(=O)c1c(F)cccc1F [Compound 16]", "7.31 µM"],
  ["C[C@@H](N)C(=O)NS(=O)(=O)c1ccc(Nc2nc(N)n(C(=O)c3c(F)cccc3F)n2)cc1 [Compound 14]", "0.89 µM"],
  ["Nc1nc(Nc2ccc(S(=O)(=O)NC(=O)[C@@H](N)CC(=O)O)cc2)nn1C(=O)c1c(F)cccc1F [Compound 17]", "1.56 µM"],
  ["COCCOCC(=O)NS(=O)(=O)c1ccc(Nc2nc(N)n(C(=O)c3c(F)cccc3F)n2)cc1 [Compound 3]", "2.56 µM"],
  ["Nc1nc(Nc2ccc(S(=O)(=O)NC(=O)CCCC(=O)O)cc2)nn1C(=O)c1c(F)cccc1F [Compound 11]", "2.77 µM"],
  ["C[C@H](N)C(=O)N[C@@H](C)C(=O)NS(=O)(=O)c1ccc(Nc2nc(N)n(C(=O)c3c(F)cccc3F)n2)cc1.O=C(O)C(F)(F)F.O=C(O)C(F)(F)F.O=C(O)C(F)(F)F [Compound 15, TFA salt]", "2.03 µM"],
  ["CCOC(=O)CCC(=O)NS(=O)(=O)c1ccc(Nc2nc(N)n(C(=O)c3c(F)cccc3F)n2)cc1 [Compound 8]", "0.47 µM"]
]}
